The following variants are listed with their measured enrichment ratio values.
B1: PhoQ; a variant is named by its letters at X, in order, P23837 (parent)
chain: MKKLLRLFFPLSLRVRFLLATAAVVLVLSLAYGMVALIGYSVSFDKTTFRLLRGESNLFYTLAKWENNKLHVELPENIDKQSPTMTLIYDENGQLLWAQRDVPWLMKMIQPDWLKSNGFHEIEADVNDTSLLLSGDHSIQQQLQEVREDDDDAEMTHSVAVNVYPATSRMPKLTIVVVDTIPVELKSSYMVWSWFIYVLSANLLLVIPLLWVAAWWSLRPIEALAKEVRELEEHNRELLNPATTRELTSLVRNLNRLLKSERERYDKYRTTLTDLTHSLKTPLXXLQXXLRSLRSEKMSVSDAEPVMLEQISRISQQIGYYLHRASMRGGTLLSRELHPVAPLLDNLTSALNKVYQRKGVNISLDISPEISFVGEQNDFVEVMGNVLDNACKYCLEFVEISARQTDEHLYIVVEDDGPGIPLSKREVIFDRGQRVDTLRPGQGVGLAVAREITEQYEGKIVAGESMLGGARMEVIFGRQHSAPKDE

- Variants of: B1
- protocol_notes: enrichment ratio after two sorts for PhoP signalling (ratio (wild type AVST 3.29)); higher = more functional
- assay_context: with PhoP (E. coli)
In all, about 140,000 sequences were measured (“enrichment ratio after two sorts for PhoP signalling”: median about 0, highest 2% from about 11 on). What follows is part of a selection rich in the highest values, with near analogues and random picks from the rest.

Please review the following examples before continuing.
mutant_name	enrichment ratio
TALQ	15.2
STPC	≤ 0.25
LCAK	≤ 0.25
LEYT	11.9
SAAE	≤ 0.25

Okay, now this variant:
GET /values?readout=enrichment ratio&item= `TACN`
13
